Assay: Pharmacokinetic study in rats
Format: in vivo
Details: male, SD, rat, plasma, po, 30 mg/kg
experimental-endpoint: AUC (ng·h/mL)
Write the answer as a number in ng·h/mL, unit excluded.

Suppose we examine the compound O=C(/C=C/c1ccc(O)c(O)c1)O[C@@H]1C[C@](O)(C(=O)O)C[C@@H](O)[C@H]1O [CHA, Chlorogenic acid] ; what AUC value has been reported? 35.8

###

Assay: Pharmacokinetic study in beagle dogs
Format: in vivo
Conditions: dog, plasma, po, 30 mg/kg, read-out: AUC Mean±SD
experimental-endpoint: AUC

Return reported AUC; argument: O=C(/C=C/c1ccc(O)c(O)c1)O[C@@H]1C[C@](O)(C(=O)O)C[C@@H](O)[C@H]1O 692 ng·h/mL
